Tested on: MOLT-4 leukemia
Test: NCI tumour cell line growth inhibition, 48 h
*1 amine or outer side, *2 acyl side, *3 side chain or, on linkers, in order; H or OH if unused. Where a SMILES comes first, the peptide text is derived from it. Bridges are numbered along the chain shown (N, C = ends). [ ]: non-standard residue; d: D form. The star is where a group is joined. Phe(3,5-F2) = N[C@@H](Cc1cc(F)cc(F)c1)C(=O)O; Pro(4R-Me) = C[C@H]1CN[C@H](C(=O)O)C1; aThr = C[C@H](O)[C@H](N)C(=O)O; Pip = O=C(O)[C@@H]1CCCCN1; X10 = Fc1cc(C2CC2)ccc1N*; CO = O=C([*:1])[*:2]
quantity-kind: TGI

{"compound": "COc1cc(C(=O)N(C(=S)OCc2ccccn2)c2ccccc2)cc(OC)c1OC", "TGI": "> 100 µM"}
{"compound": "NS(=O)(=O)c1ccc2c(c1)OCCOCCOCCOCCO2", "TGI": "> 100 µM"}

Record TGI for all entries; do not skip any.
1. Nc1nc(Cl)cc(NCC2(CO)CC(=O)C2)n1
2. O=C1CC(NC(=O)C(F)(F)F)c2c(Br)sc(N3CCNCC3)c21 (centres undefined)
3. CN(C)C(=O)O/N=C1/C(c2c(O)[nH]c3ccccc23)=Nc2ccccc21
4. CCOC(=O)CSc1c(C(=O)OCC)c(=O)n(-c2ccccc2)c(=S)n1-c1ccccc1
5. NC(N)=N/N=C/c1c(-c2ccc(N)cc2)nc2sccn12
6. C[C@@H]1C[C@H]2C(=O)O[C@@H](C)[C@H](NC(=O)[C@H](Cc3cc(F)cc(F)c3)NC(=O)Nc3ccc(C4CC4)cc3F)C(=O)N3CCC[C@H]3C(=O)N3CCCC[C@H]3C(=O)N[C@@H](C)C(=O)N2C1 ({X10-CO}-[Phe(3,5-F2)][aThr]P[Pip]A[Pro(4R-Me)]; ester 2-C)
7. Cc1n[nH]c(=O)n1/N=C/c1ccc(Cl)cc1
8. COc1ccc(-c2c(C#N)c(-c3ccc(C)cc3)n(NS(=O)(=O)c3ccc(C)cc3)c(=O)c2C#N)cc1

Result:
["> 100 µM", "> 100 µM", "41.5 µM", "> 100 µM", "73.9 µM", "> 42.7 µM", "> 100 µM", "57.4 µM"]

---

System: BT-549 breast
Assay: NCI tumour cell line growth inhibition, 48 h
*1 amine or outer side, *2 acyl side, *3 side chain or, on linkers, in order; H or OH if unused. Where a SMILES comes first, the peptide text is derived from it. Bridges are numbered along the chain shown (N, C = ends). [ ]: non-standard residue; d: D form. The star is where a group is joined. Phe(3,5-F2) = N[C@@H](Cc1cc(F)cc(F)c1)C(=O)O; Pro(4R-Me) = C[C@H]1CN[C@H](C(=O)O)C1; aThr = C[C@H](O)[C@H](N)C(=O)O; Pip = O=C(O)[C@@H]1CCCCN1; X10 = Fc1cc(C2CC2)ccc1N*; CO = O=C([*:1])[*:2]
quantity-kind: TGI

Some compounds with known TGI results, for comparison:
{"compound": "CN1CCc2cc(N)cc3c2C1Cc1ccc(O)c(O)c1-3 (stereo not given)", "TGI": "> 100 µM"}
{"compound": "CCOC(=O)c1cn2c(n1)sc1cccc(C)c12", "TGI": "> 100 µM"}

Record TGI for all entries; do not skip any.
1. CN(C)C(=O)O/N=C1/C(c2c(O)[nH]c3ccccc23)=Nc2ccccc21
2. c1csc(-c2ccc(-c3cccc4nsnc34)s2)c1
3. CN1C(=O)C2CCC(=O)N2c2cccnc21 (stereo not given)
4. C=CCO[C@H]1CO[C@H]2[C@@H]1OC[C@@H]2Oc1ccc(Nc2ccnc(Nc3ccc(O[C@H]4CO[C@H]5[C@@H]4OC[C@@H]5OCC=C)c(Cl)c3)n2)cc1Cl
5. CCCCCCc1cc2cc(-c3csc(CC#N)n3)c(=O)oc2cc1O
6. CCN1CCN(Cc2ccc(NC(=O)c3cccc(C#Cc4cccc5[nH]nc(N)c45)c3)cc2C(F)(F)F)CC1
7. C[C@@H]1C[C@H]2C(=O)O[C@@H](C)[C@H](NC(=O)[C@H](Cc3cc(F)cc(F)c3)NC(=O)Nc3ccc(C4CC4)cc3F)C(=O)N3CCC[C@H]3C(=O)N3CCCC[C@H]3C(=O)N[C@@H](C)C(=O)N2C1 ({X10-CO}-[Phe(3,5-F2)][aThr]P[Pip]A[Pro(4R-Me)]; ester 2-C)

Result:
["43.7 µM", "> 100 µM", "> 100 µM", "3.11 µM", "> 60.2 µM", "2.41 µM", "> 22.4 µM"]

Record TGI for all entries; do not skip any.
1. CN(C)c1ccc(/C=C\C2=[N+](C)c3ccccc3C2(C)C)cc1
2. NC(=O)NCCCC(NC(=O)OCCCCn1ccc(=O)[nH]c1=O)C(=O)O (stereo not given)
3. C=CCOc1ccc2c(C)cc(=O)oc2c1C
4. Nc1c2c(nc3ccccc13)-c1ccccc1CC2
5. CCOC(=O)Cn1c(C(F)(F)F)nc2nc(Cl)c(Cl)nc21
6. COc1cccc(-c2cc(-c3cccc(NS(C)(=O)=O)c3)nc(N)c2C#N)c1O
7. COc1cccc(C2c3cc4c(cc3OC(C)(N3CCCC3)C2C)OCO4)c1O (stereo not given)
8. Cc1ccc(NC(=O)Nc2ccc(-c3cccnc3)cc2N2CCC(CO)CC2)cc1

Result:
1. 11.2 µM
2. > 100 µM
3. > 100 µM
4. 27 µM
5. > 100 µM
6. > 47.4 µM
7. 48.2 µM
8. 9.2 µM
